- protocol.text: Population pharmacokinetic modelling of DHA and piperaquine plasma concentrations in healthy Thai volunteers
- Format: in vivo, human
- experimental.context: both sexes, human, plasma, oral, with primaquine; Bayesian post hoc estimates; read-out: CMAX, median (range)
measured.property: Cmax (ng/mL)
Write the value in ng/mL as a bare number.

Q) In one line, give reported Cmax of the entry C[C@H]1[C@@H](O)O[C@@H]2O[C@@]3(C)CC[C@H]4[C@H](C)CC[C@@H]1[C@@]24OO3 [dihydroartemisinin] .
A) 357

Q) Give recorded Cmax. `Clc1ccc2c(N3CCN(CCCN4CCN(c5ccnc6cc(Cl)ccc56)CC4)CC3)ccnc2c1`
A) 300
